# assay target: FLT3 (Homo sapiens, UniProt P36888)
# Sequence (P36888 27-993): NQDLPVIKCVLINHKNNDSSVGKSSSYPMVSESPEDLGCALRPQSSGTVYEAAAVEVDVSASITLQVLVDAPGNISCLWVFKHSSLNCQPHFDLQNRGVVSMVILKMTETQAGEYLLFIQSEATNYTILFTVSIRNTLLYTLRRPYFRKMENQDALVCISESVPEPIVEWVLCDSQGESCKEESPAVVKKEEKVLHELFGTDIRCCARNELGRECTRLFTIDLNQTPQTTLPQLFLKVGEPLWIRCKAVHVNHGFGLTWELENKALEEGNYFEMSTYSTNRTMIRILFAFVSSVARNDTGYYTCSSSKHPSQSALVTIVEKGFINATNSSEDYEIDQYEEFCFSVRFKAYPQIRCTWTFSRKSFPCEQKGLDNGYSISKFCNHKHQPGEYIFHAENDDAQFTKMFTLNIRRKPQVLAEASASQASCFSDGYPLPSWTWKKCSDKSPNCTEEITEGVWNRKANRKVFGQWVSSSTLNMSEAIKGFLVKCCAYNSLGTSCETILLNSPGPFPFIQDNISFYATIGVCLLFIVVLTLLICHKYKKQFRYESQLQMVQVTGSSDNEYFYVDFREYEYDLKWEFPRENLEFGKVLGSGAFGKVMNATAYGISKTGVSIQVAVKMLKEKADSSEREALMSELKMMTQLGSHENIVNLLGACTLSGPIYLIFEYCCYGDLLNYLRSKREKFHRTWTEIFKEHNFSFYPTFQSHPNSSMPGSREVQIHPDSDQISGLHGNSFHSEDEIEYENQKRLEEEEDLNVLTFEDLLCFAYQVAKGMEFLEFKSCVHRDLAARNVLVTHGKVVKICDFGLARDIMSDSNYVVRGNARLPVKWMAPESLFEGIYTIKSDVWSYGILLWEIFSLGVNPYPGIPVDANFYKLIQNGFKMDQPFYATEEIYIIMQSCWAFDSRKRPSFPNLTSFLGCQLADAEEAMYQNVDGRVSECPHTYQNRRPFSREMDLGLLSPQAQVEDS
# assay info: RBC HotSpot Kinase Assay, FLT3
# Type: biochemical
# Parameters: purchased RBC (Reaction Biology) HotSpot assay
# condition context: HotSpot functional assay, isolated kinase enzyme, 33P-ATP
IC50 less than 20 nM is class 1; IC50 greater than or equal to 20 nM is class 0.

In [3]: df
Out[3]:
                                   compound  class_label
0  COc1cc2ncc(-c3nc(N[C@H]4CNC[C@@H]4F)c(F)cc3F)n2nc1C1COC1 [Compound 71a]      class 1
1  COc1cc2ncc(-c3nc(N[C@H]4CNC[C@@H]4F)c(F)cc3F)n2nc1N1CCCC1=O [Compound 24a]      class 1
2  COc1cc2ncc(-c3ccc(F)c(N[C@@H]4CCCNC4)n3)n2nc1C1CC1 [Compound 49a]      class 1
3  COc1cc2ncc(-c3nc(N[C@H]4CNC[C@@H]4F)c(C)cc3C)n2nc1C1CC1 [Compound 63a]      class 0
4  Fc1cc(F)c(-c2cnc3cc(OCC(F)F)cnn23)nc1N[C@H]1CNCC[C@@H]1F [Compound 84a]      class 1
5  COc1cc2ncc(-c3ccc(C)c(N[C@H]4CNC[C@@H]4F)n3)n2nc1C1CC1 [Compound 42a]      class 0
6  COc1cc2ncc(-c3ccc(F)c(N[C@H]4CNC[C@@H]4F)n3)n2nc1C(C)(C)O      class 1
7  COc1cc2ncc(-c3cc(C4CC4)cc(N[C@H]4CNC[C@@H]4F)n3)n2nc1C1CC1 [Compound 57a]      class 1
